# Assayed Target: T1, AFP158/HLA-A*02:01 complex (human)
# T1 construct: biotinylated on the BSP by BirA for ELISA and panning; also called biotinylated AFP158/HLA-A*02:01 complex; Bio-AFP158
# Assay: SPR; vs AS170036 VL1VH1;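 also: crude scFv captured on sensor chip, peptide–HLA complex flowed over at several concentrations, KD estimated from association and dissociation kinetic rates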
Below, each of the binders is paired with its reported Affinity increase value.
Express the result in fold but write the number alone.

Here are 2 binders together with their reported answers.
AS170036 VL1VH1 HG56M (scFv) scFv: QSALTQPRSVSGSPGQSVTISCAGTSSDVGSENYVSWYQQHPGKAPKLMIYQVNKRASGVPDRFSGSKSGNTASLTISGLQAEDEADYYCASYRSSDHNIVFGGGTKLTVLGGGGSGGGGSGGGGSEVQLVESGGGLVQPGGSLRLSCAASGFTFSSYAMSWVRQAPGKGLEWVSTINSGTMSPYYADSVKGRFTISRDNSKNTLYLQMNSLRAEDTAVYYCAKNFFDGSWFLGPPAMDYWGQGTLVTVSSHHHHHH = 1.7
AS170036 VL1VH1 HD102S (scFv) scFv: QSALTQPRSVSGSPGQSVTISCAGTSSDVGSENYVSWYQQHPGKAPKLMIYQVNKRASGVPDRFSGSKSGNTASLTISGLQAEDEADYYCASYRSSDHNIVFGGGTKLTVLGGGGSGGGGSGGGGSEVQLVESGGGLVQPGGSLRLSCAASGFTFSSYAMSWVRQAPGKGLEWVSTINSGTGSPYYADSVKGRFTISRDNSKNTLYLQMNSLRAEDTAVYYCAKNFFSGSWFLGPPAMDYWGQGTLVTVSSHHHHHH = 0.4

// below: Affinity increase requested for another binder
Memo: AS170036 VL1VH1 HF101N (scFv) scFv: QSALTQPRSVSGSPGQSVTISCAGTSSDVGSENYVSWYQQHPGKAPKLMIYQVNKRASGVPDRFSGSKSGNTASLTISGLQAEDEADYYCASYRSSDHNIVFGGGTKLTVLGGGGSGGGGSGGGGSEVQLVESGGGLVQPGGSLRLSCAASGFTFSSYAMSWVRQAPGKGLEWVSTINSGTGSPYYADSVKGRFTISRDNSKNTLYLQMNSLRAEDTAVYYCAKNFNDGSWFLGPPAMDYWGQGTLVTVSSHHHHHH , reported Affinity increase: 0.1
